Cited source: ChEMBL document CHEMBL1139498

# TESTED_ON: Transient receptor potential cation channel subfamily V member 1 (Homo sapiens, UniProt Q8NER1)
# Sequence (Q8NER1 whole entry): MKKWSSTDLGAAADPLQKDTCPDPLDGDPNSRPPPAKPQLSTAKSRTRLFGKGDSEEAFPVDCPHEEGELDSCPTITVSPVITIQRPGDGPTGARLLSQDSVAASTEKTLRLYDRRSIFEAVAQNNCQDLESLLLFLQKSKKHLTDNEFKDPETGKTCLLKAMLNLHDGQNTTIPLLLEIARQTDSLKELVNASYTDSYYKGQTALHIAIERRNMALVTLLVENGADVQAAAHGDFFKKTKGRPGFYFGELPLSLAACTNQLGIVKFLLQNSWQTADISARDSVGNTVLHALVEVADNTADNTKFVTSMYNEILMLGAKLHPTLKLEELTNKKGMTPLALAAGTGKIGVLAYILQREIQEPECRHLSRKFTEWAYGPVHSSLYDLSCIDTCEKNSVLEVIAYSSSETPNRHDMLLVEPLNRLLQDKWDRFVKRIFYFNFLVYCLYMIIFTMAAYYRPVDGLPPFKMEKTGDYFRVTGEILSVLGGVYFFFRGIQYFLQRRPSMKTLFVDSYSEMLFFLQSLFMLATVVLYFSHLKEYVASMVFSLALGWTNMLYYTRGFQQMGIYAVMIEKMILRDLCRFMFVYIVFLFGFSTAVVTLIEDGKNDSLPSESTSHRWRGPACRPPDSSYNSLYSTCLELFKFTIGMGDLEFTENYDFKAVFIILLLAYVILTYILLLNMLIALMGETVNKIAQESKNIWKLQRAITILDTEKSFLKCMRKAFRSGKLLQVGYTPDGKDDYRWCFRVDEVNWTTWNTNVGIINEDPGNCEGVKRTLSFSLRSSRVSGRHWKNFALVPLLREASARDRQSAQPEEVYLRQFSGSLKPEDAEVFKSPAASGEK
# ASSAY_REMARKS: Inhibition of capsaicin-induced calcium uptake by transient receptor potential vanilloid type 1 expressed in CHO cells
# Assay type: functional, cell-based
pIC50: −log10 of the molar value.
Give true (1) when the value for pIC50 is at least 7. Give false (0) when it is less.

Completed entries (count: 3):
COMPOUND	CLASS_ASSIGNMENT
Oc1cc2c(cc1O)CN(C(=S)NCCc1ccc(Cl)cc1)CCC2 [CAPSAZEPINE]	false (0)
O=C(/C=C/c1ccc(C(F)(F)F)nc1N1CCOCC1)Nc1ccc2cccnc2c1	true (1)
O=C(/C=C/c1ccc(C(F)(F)F)nc1N1CCCCC1)Nc1ccc2cccnc2c1	true (1)

Now take the following compound into account.
Query :: Quick check: does O=C(/C=C/c1ccc(Cl)cc1)Nc1ccc2c(c1)OCCO2 have pIC50 greater than or equal to 7?
Result :: false (0)

---

# TESTED_ON: Transient receptor potential cation channel subfamily V member 1 (Homo sapiens)
# ASSAY_REMARKS: Inhibition of capsaicin-induced calcium uptake by transient receptor potential vanilloid type 1 expressed in CHO cells
# Assay type: functional, cell-based
MEASURED_ENDPOINT: pIC50
Just so you know, pIC50 here is -log10 of the concentration in molar units; reply with that number alone.

Recorded results for 3 compounds are shown here.
1) O=C(/C=C/c1ccc(Br)cc1)Nc1ccc2c(c1)OCCO2 6.96
2) CC(C)(C)c1ccc(/C(=C/C(=O)Nc2ccc3c(c2)OCCO3)Cc2ccccc2)cc1 7.85
3) CC(C)(C)c1ccc(/C=C/C(=O)Nc2ccc3c(c2)CCCC3)cc1 7.21

Attention now turns to another entry.
Query :: I'm curious: which pIC50 was measured for O=C(/C=C/c1ccc(C(F)(F)F)cc1)Nc1ccc2c(c1)OCCO2 tested on Transient receptor potential cation channel subfamily V member 1 (Homo sapiens)?
Result :: 7.34

---

# ASSAY_REMARKS: Plasma clearance in rat after intravenous administration of 3 mg/kg
# Assay type: ADME, organism-based
# Parameters: dose 3 mg/kg, route intravenous
MEASURED_ENDPOINT: clearance (mL/min/kg)
Give the number; mL/min/kg is assumed, so skip it.

Query :: If you can, please state the reported clearance value of CC(C)(C)c1ccc(/C=C/C(=O)Nc2ccc3c(c2)OCCO3)cc1 (stereo in doubt; 1) .
Result :: 73.3

---

# ASSAY_REMARKS: Half life in rat after intravenous administration of 2 mg/kg
# Assay type: ADME, organism-based
# Set-up: dose 2 mg/kg, route intravenous
# REPORTED_CONDITIONS: in vivo
// reported half-life for each item listed
Give the number; h is assumed, so skip it.

1. O=C(/C=C/c1ccc(C(F)(F)F)nc1N1CCCCC1)Nc1ccc2cccnc2c1 2.9

Attention now turns to another entry.
Query :: If you can, please state the reported half-life value of O=C(/C=C/c1ccc(C(F)(F)F)nc1N1CCOCC1)Nc1ccc2cccnc2c1 .
Result :: 0.9

---

# ASSAY_REMARKS: Steady state volume of distribution in rat after intravenous administration of 3 mg/kg
# Type: ADME, organism-based
# Set-up: dose 3 mg/kg, route intravenous
# REPORTED_CONDITIONS: in vivo, read-out: Vss
MEASURED_ENDPOINT: Vd (L/kg)
Give the number; L/kg is assumed, so skip it.

Query :: If you can, please state the reported Vd value of CC(C)(C)c1ccc(/C=C/C(=O)Nc2ccc3c(c2)OCCO3)cc1 (stereo in doubt; 1) .
Result :: 2.1
